- System: UACC-62
- assay_summary: NCI tumour cell line growth inhibition, 48 h
Active and inactive are the calls of the source. Cut-off read from the data, not from the text of the source: active = GI50 up to about 1.1 µM and inactive = higher. Starred links: 1 amine or outer side, 2 acyl side, 3 side chain; linkers in the order of their positions; H or OH if unused. Non-standard residues stand in square brackets, D forms with d. Residues, ends and D or L forms follow the SMILES beside them. X41 = CSCCCC(N[*:1])C(=O)[*:2]
# valid calls are active, inactive; nothing else

- compound: "CC(=O)O[C@H]1CCC2[C@@H]3CCC4Nc5c(cnn5-c5ccccc5)C[C@]4(C)C3CC[C@@]21C (stereo partly drawn)"
  class_assignment: "inactive"
- compound: "Cc1ccc(N/N=C2\\C3=C(CCC(C)(C)O3)C(=O)c3ccccc32)cc1"
  class_assignment: "inactive"
- compound: "CN1C(=O)N(C)C2(CCN(CC(CC3OCCO3)c3ccc(F)cc3)CC2)C1=O (stereo not drawn)"
  class_assignment: "inactive"

Inquiry: Call for entry CSCCCC(NC(=O)CNC(=O)C1CCCN1C(=O)C(Cc1ccc(O)cc1)NC(=O)C(Cc1ccccc1)NC(=O)C(CCCNC(=N)N)NC(=O)C(CC(=O)O)NC(=O)C1CCCN1C(=O)C(CC(=O)O)NC(=O)C1CCCN1C(=O)C1CCCN1C(=O)CN)C(N)=O (stereo not drawn) (H-GPPDPDRFYPG[X41]-NH2; configuration not given here) :
Reply text: inactive
